Values compiled from the supplement of paper PMC6555819.

- Test system: FXR:RXRa (NR concentration 270 nM, RXRa partner concentration 90 nM)
- Assay remarks: PBM binding z-score (relative to random genomic background probes); higher = stronger binding; sequences stand for … in GC…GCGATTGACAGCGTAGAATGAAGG
Categories are defined by ranges of PBM binding z-score, namely small value: < 0.3; mid value: ≥ 0.3 and < 3; large value: ≥ 3

{"Sequence data": "TCATATAGGTAAATGATAGGTGAAAGTCCGATCT", "Assigned label": "mid value"}
{"Sequence data": "GCTAGTTGGTCAGTAAAAGGGCACACACCGGTCG", "Assigned label": "small value"}
{"Sequence data": "ATACCAAAGTGATCGTGAGGTCGTTGATACTAAC", "Assigned label": "mid value"}
{"Sequence data": "ACAGACAGGTGAGTGTAGGTAACTCAGCTGGACG", "Assigned label": "small value"}
{"Sequence data": "GGAACGAGGGCAAGTTGATGGCAGAGTTTGATGG", "Assigned label": "mid value"}
{"Sequence data": "CCTCCAAGGTCAATGCTAGGTCAGTGAAAGCATT", "Assigned label": "large value"}

Q: Exam item: assign "GATACAGGGTAAGCTAGAGGCCAGAGTATGGAAA" to the correct category.
A: small value

Q: Exam item: assign "TGAATGGGGTTAAAGATCAGGGAACGTGGCGTCG" to the correct category.
A: large value

Q: Exam item: assign "ATCGAAAGGTCCAGGTGAGTATAGAGAAAGGGAA" to the correct category.
A: mid value

Q: Exam item: assign "CCTAGTTCGTCAAGGTCACACACGCTATAGGTAC" to the correct category.
A: large value

Q: Exam item: assign "CAAACTAGGTCCCGAAAGGTCAAAGTCGAATGAC" to the correct category.
A: large value

Q: Exam item: assign "GAGACTGGGGCAAAGCAGGTTACCATAAGGTTGG" to the correct category.
A: mid value

Q: Exam item: assign "CGTCAAAGCTCAAGGTAACGTAACAGAAAGCAGC" to the correct category.
A: small value

Q: Exam item: assign "CAAACTAGGTCACAGACGTCAAAGTCCGTGCGTA" to the correct category.
A: large value

Q: Exam item: assign "ATCTCTAGGTAACCAAGTTCAGGGAATGCCGAAC" to the correct category.
A: small value

Q: Exam item: assign "ACTAGCAGGCCAAGATTGGGTCACTCAAACAAAG" to the correct category.
A: small value

Q: Exam item: assign "ACCAGCAGGCCAAGTTTGGGTCACTCAAACAAAG" to the correct category.
A: small value

Q: Exam item: assign "TGTCAAAGTTCAAAGGTAGCGTAAGTATCCACAC" to the correct category.
A: large value

Q: Exam item: assign "TCTTGTAGATCAATAGAGGTTAAGAAGGTGCGCT" to the correct category.
A: mid value

---

// reported PBM binding z-score for each item listed
- Test system: PPARg:RXRa (NR concentration 180 nM, RXRa partner concentration 90 nM)
- Assay remarks: PBM binding z-score (relative to random genomic background probes); higher = stronger binding; sequences stand for … in GC…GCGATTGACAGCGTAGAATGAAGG
Could you respond with only the numeric value?

# example entries with known answers
{"Sequence data": "CCTAGTTGGTCAAGGTCACACGCGCTATAGGTAC", "System tested": "PPARg:RXRa (NR concentration 180 nM, RXRa partner concentration 90 nM)", "Attribute measured": "PBM binding z-score", "Endpoint value": 3.54}
{"Sequence data": "TCTAGCAGGCCAGAGGTTCACTCAAGAGGTACGG", "System tested": "PPARg:RXRa (NR concentration 180 nM, RXRa partner concentration 90 nM)", "Attribute measured": "PBM binding z-score", "Endpoint value": 1.43}
{"Sequence data": "AGAATGAGGTTATCAAGATCAGGGAATTGCGGTC", "System tested": "PPARg:RXRa (NR concentration 180 nM, RXRa partner concentration 90 nM)", "Attribute measured": "PBM binding z-score", "Endpoint value": 1.6}
{"Sequence data": "GCTAGTTGGTCAGTAAAAGGTCACACAGCGGTCG", "System tested": "PPARg:RXRa (NR concentration 180 nM, RXRa partner concentration 90 nM)", "Attribute measured": "PBM binding z-score", "Endpoint value": 2.84}
{"Sequence data": "CCGCGGAGGACAGAAGGTCAGAGCTGTCCGCTTT", "System tested": "PPARg:RXRa (NR concentration 180 nM, RXRa partner concentration 90 nM)", "Attribute measured": "PBM binding z-score", "Endpoint value": -0.261}
{"Sequence data": "CAAACTAGGTCACCGGAAGGTCAAATTCCGCATG", "System tested": "PPARg:RXRa (NR concentration 180 nM, RXRa partner concentration 90 nM)", "Attribute measured": "PBM binding z-score", "Endpoint value": 9.94}

Now turn to the next sequence.
Form field PBM binding z-score, entry "CCGAGTAGGTTATGGGGCATTAAGGCAACGGTGA" : 3.57

---

- System: RARb:RXRa (NR concentration 270 nM, RXRa partner concentration 90 nM)
- Assay remarks: PBM binding z-score (relative to random genomic background probes); higher = stronger binding; sequences stand for … in GC…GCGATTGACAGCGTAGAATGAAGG
Short version: PBM binding z-score at least 2 is y, less is n.

{"Sequence data": "GATACAGGGTCAAGGCAAGAGTACGCGTATTGAT", "System tested": "RARb:RXRa (NR concentration 270 nM, RXRa partner concentration 90 nM)", "Assigned label": "y"}
{"Sequence data": "ATCTCTAGGTCACAAGTTCAGTGAAAGAGAGGAC", "System tested": "RARb:RXRa (NR concentration 270 nM, RXRa partner concentration 90 nM)", "Assigned label": "y"}
{"Sequence data": "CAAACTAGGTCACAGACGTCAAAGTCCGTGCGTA", "System tested": "RARb:RXRa (NR concentration 270 nM, RXRa partner concentration 90 nM)", "Assigned label": "y"}
{"Sequence data": "AGAATCAGGTTATTAAGATCAGGGAATTGCGGTC", "System tested": "RARb:RXRa (NR concentration 270 nM, RXRa partner concentration 90 nM)", "Assigned label": "n"}
{"Sequence data": "TCTATTAGTTGATTAGGGCAACCTAAACAGCGGA", "System tested": "RARb:RXRa (NR concentration 270 nM, RXRa partner concentration 90 nM)", "Assigned label": "n"}
{"Sequence data": "ATCTCTAGGTAACAAGCTCAGTGAAAGAGAGGAC", "System tested": "RARb:RXRa (NR concentration 270 nM, RXRa partner concentration 90 nM)", "Assigned label": "n"}

Q: Form field: PBM binding z-score at least 2? Entry: "ACTCGGAGGACAAGGGTCAGAGCTACGCCAGTGA"
A: y

Q: Form field: PBM binding z-score at least 2? Entry: "ATAGGTAGGTTATCGGGTCATTCAGTTTGCGCAT"
A: y

Q: Form field: PBM binding z-score at least 2? Entry: "GCATATAGGTAATACAAGGTGACAGTCCGATTGT"
A: n

Q: Form field: PBM binding z-score at least 2? Entry: "CCTTACGGCTCACGAGGTTATAGCACGACGAGCG"
A: n

Q: Form field: PBM binding z-score at least 2? Entry: "TAGCCTAGGTCAGATCGGGCCAGTTTACGCTATA"
A: y

Q: Form field: PBM binding z-score at least 2? Entry: "ACTATTTGGTCAGCTGAGGTCACACACAATTCGG"
A: y

Q: Form field: PBM binding z-score at least 2? Entry: "GATACAGGATCAGCTAGAGGCCAGAGTATGGAAA"
A: n

Q: Form field: PBM binding z-score at least 2? Entry: "CTCGACAGGTCGTGCTCAGGTGAGTATACCAAAC"
A: n

Q: Form field: PBM binding z-score at least 2? Entry: "TTACCAAGGTGAGCTGAGTTCGTTGATCCAACTC"
A: n

---

// reported PBM binding z-score for each item listed
- Tested on: VDR homodimer (NR concentration 270 nM)
- Assay remarks: PBM binding z-score (relative to random genomic background probes); higher = stronger binding; sequences stand for … in GC…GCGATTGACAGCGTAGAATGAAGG
Could you respond with only the numeric value?

# example entries with known answers
{"Sequence data": "CCGACTGGGGGATAAGGTTACCATAAGCCAGCCC", "System tested": "VDR homodimer (NR concentration 270 nM)", "PBM binding z-score": 0.491}
{"Sequence data": "CCAGACAGGTGAAATGTAACTCAGTCTGGTACGC", "System tested": "VDR homodimer (NR concentration 270 nM)", "PBM binding z-score": -0.0884}
{"Sequence data": "CGAACTAGGTTAGAACAGGACAGTGAAGGATGAT", "System tested": "VDR homodimer (NR concentration 270 nM)", "PBM binding z-score": -0.137}

Form field PBM binding z-score, entry "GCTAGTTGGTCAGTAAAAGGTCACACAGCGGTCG" : 2.18

Form field PBM binding z-score, entry "AATACAGGGTCATCGTAGGCCAGGGTACGCACAG" : 3.9

Form field PBM binding z-score, entry "GTACCAAGGTGCATAGGTCGTTGATGAGTAGGCG" : 0.968

Form field PBM binding z-score, entry "GCAGACAGATGAAACGCAGGTAACTCAGGGTGGC" : -0.594

Form field PBM binding z-score, entry "CCTACTGGGCCATTCAGACGTCATTGATCATATG" : -0.378

Form field PBM binding z-score, entry "AGAATGAGGTTATTTAGATCAGGGAATTGCGGTC" : 1.48
